Record set of pIC50 for target or system JNK1 (Homo sapiens, UniProt P45983).
pIC50: −log10 of the molar value.
readout: pIC50

O=C(N[C@@H]1[C@@H]2C[C@@H]3C[C@H]1C[C@@](O)(C3)C2)c1ccc(Cc2c(-c3ncco3)n(-c3ccccc3)c3cc(Cl)ccc3c2=O)cc1: 7.57
COC(=O)c1c(Cc2ccc(C(=O)N[C@@H]3[C@@H]4C[C@@H]5C[C@H]3C[C@@](NC(=O)C(C)(C)O)(C5)C4)cc2)c(=O)c2cccnc2n1-c1ccccc1: 7.66
COC(=O)c1c(Cc2ccc(C(=O)N[C@@H]3[C@@H]4C[C@@H]5C[C@H]3C[C@@](NC(=O)C(C)(C)OC(C)=O)(C5)C4)cc2)c(=O)c2cccnc2n1-c1ccccc1: 7.60
COC(=O)c1c(Cc2ccc(C(=O)N[C@@H]3[C@@H]4C[C@@H]5C[C@H]3C[C@@](N)(C5)C4)cc2)c(=O)c2ccc(Cl)cc2n1-c1ccccc1: 7.57
COC(=O)c1c(Cc2ccc(C(=O)N[C@@H]3[C@@H]4C[C@@H]5C[C@H]3C[C@@](NS(=O)(=O)C3CC3)(C5)C4)cc2)c(=O)c2cccnc2n1-c1ccccc1: 8.30
COC(=O)c1c(Cc2ccc(C(=O)N[C@@H]3[C@@H]4C[C@@H]5C[C@H]3C[C@@](O)(C5)C4)cc2)c(=O)c2cccnc2n1-c1ccccc1: 7.92
COC(=O)c1c(Cc2ccc(C(=O)N[C@@H]3[C@@H]4C[C@@H]5C[C@H]3C[C@@](O)(C5)C4)cc2OC)c(=O)c2cccnc2n1-c1ccccc1: 7.57
COC(=O)c1c(Cc2ccc(S(C)(=O)=O)cc2)c(=O)c2ccc(Cl)cc2n1-c1ccccc1 [reference compound]: 7.49

a. COC(=O)c1c(Cc2ccc(C(=O)N[C@@H]3[C@@H]4C[C@@H]5C[C@H]3C[C@@](NC(C)=O)(C5)C4)cc2)c(=O)c2ccc(Cl)cc2n1-c1ccccc1
b. COC(=O)c1c(Cc2ccc(C(=O)N[C@@H]3[C@@H]4C[C@@H]5C[C@H]3C[C@@](NCC(C)(C)O)(C5)C4)cc2)c(=O)c2ccc(Cl)cc2n1-c1ccccc1
c. COC(=O)c1c(Cc2ccc(C(=O)N[C@@H]3[C@@H]4C[C@@H]5C[C@H]3C[C@@](OC(C)=O)(C5)C4)cc2)c(=O)c2ccc(Cl)cc2n1-c1ccccc1
In: Your job: order these 3 records by pIC50, ascending. Please list each label once, in the requested order.
Out: c, a, b
